Tested On: 5-hydroxytryptamine receptor 2A (Homo sapiens, UniProt P28223); also: assay procedure not described here
Sequence (P28223 whole entry): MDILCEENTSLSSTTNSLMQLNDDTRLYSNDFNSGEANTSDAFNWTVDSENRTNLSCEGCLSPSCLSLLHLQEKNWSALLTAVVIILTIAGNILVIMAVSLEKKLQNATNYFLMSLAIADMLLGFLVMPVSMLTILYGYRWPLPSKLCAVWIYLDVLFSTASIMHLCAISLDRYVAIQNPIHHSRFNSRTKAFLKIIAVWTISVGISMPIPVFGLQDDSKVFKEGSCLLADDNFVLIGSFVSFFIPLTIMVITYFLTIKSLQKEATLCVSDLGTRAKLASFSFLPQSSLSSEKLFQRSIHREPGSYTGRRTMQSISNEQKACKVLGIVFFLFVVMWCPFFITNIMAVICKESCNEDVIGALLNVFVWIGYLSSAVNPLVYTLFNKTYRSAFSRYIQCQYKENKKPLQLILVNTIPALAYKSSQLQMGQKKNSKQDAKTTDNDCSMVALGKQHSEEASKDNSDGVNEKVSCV
Assay type: functional, cell-based
Observation Type: AC50

Solved cases (8 shown):
Query :: What value of AC50 has been reported for the following molecule? CN1CCCN=C1/C=C/c1cccc(O)c1 [OXANTEL]
Result :: > 30 µM

Query :: What value of AC50 has been reported for the following molecule? CCC1(CC)C(=O)NC(=O)N(C)C1=O [METHARBITAL]
Result :: > 10 µM

Query :: What value of AC50 has been reported for the following molecule? CCN(CC)CCn1c(=O)c(Cc2ccc(OC)cc2)nc2ccccc21 [CAROVERINE]
Result :: 9.7 µM

Query :: What value of AC50 has been reported for the following molecule? CCOCC(O)COc1ccc(NC(=O)CC[S+](C)C)cc1 (centres undefined)
Result :: > 30 µM

Query :: What value of AC50 has been reported for the following molecule? CN(C)CCc1c[nH]c2ccc(CS(=O)(=O)N3CCCC3)cc12 [ALMOTRIPTAN]
Result :: > 30 µM

Query :: What value of AC50 has been reported for the following molecule? CCC(=O)O[C@H](CC(=O)O)C[N+](C)(C)C [LEVOCARNITINE PROPIONATE]
Result :: > 30 µM

Query :: What value of AC50 has been reported for the following molecule? COC(=O)[C@H]1[C@H]2C[C@@H]3c4[nH]c5ccccc5c4CCN3C[C@H]2C[C@@H](OC(=O)c2cc(OC)c(OC)c(OC)c2)[C@@H]1OC [DESERPIDINE]
Result :: > 10 µM

Query :: What value of AC50 has been reported for the following molecule? "C=CC1=C(C(=O)O)N2C(=O)[C@@H](NC(=O)/C(=N\O)c3csc(N)n3)[C@H]2SC1"
Result :: > 30 µM

Continue with the molecule presented below.
Query :: What value of AC50 has been reported for the following molecule? O=C(O)[C@H]1/C(=C/CO)O[C@@H]2CC(=O)N21 [CLAVULANIC ACID]
Result :: > 30 µM

These entries and their values trace back to ChEMBL document CHEMBL5291721.
